Tested on: Jurkat
Assay explanation: Cytotoxicity against human Jurkat cells assessed as cell viability after 24 hrs by WST-1 assay
Type: functional
Run parameters: read-out: LD50 (the source's name)
Measured parameter: CC50 (µM)
Field format: number, assumed µM, no unit text.

Task item: Which CC50 value belongs to CCCCCCCc1c(O)ccc(O)c1CO ?
Reply: 8.2

Task item: Which CC50 value belongs to CCCCC/C=C/C1=C(CO)C(=O)[C@H]2O[C@H]2[C@@H]1O ?
Reply: 20

Task item: Which CC50 value belongs to Nc1ccn([C@@H]2O[C@H](CO)[C@@H](O)C2(F)F)c(=O)n1 ?
Reply: 0.012

Task item: Which CC50 value belongs to CCCCCCC(O)c1cccc(O)c1CO (stereo not drawn) ?
Reply: 8.3

Task item: Which CC50 value belongs to CCCCC/C=C/c1c(O)ccc(O)c1CO ?
Reply: 3.1

----------
Test system: MCF7
Assay explanation: Cytotoxicity against human MCF7 cells assessed as cell viability after 24 hrs by WST-1 assay
Assay type: functional
Run parameters: MCF7, 24 h, read-out: LD50 (the source's name)
Measured parameter: CC50 (µM)
Field format: number, assumed µM, no unit text.

Task item: Which CC50 value belongs to CCCCC/C=C/c1c(O)ccc(O)c1CO ?
Reply: 14.8

Task item: Which CC50 value belongs to CCCCC/C=C/C1=C(CO)C(=O)[C@H]2O[C@H]2[C@@H]1O ?
Reply: 75

Task item: Which CC50 value belongs to Nc1ccn([C@@H]2O[C@H](CO)[C@@H](O)C2(F)F)c(=O)n1 ?
Reply: 0.004

Task item: Which CC50 value belongs to CCCCCCCc1c(O)ccc(O)c1CO ?
Reply: 93

----------
Test system: RAW264.7
Assay explanation: Cytotoxicity against mouse RAW264.7 cells assessed as cell viability after 24 hrs by WST-1 assay
Type: functional
Run parameters: RAW264.7, 24 h, read-out: LD50 (the source's name)
Measured parameter: CC50 (µM)
Field format: number, assumed µM, no unit text.

Task item: Which CC50 value belongs to CCCCCCCc1c(O)ccc(O)c1CO ?
Reply: 20.1

Task item: Which CC50 value belongs to CCCCC/C=C/c1c(O)ccc(O)c1CO ?
Reply: 5.6

Task item: Which CC50 value belongs to CCCCCCC(O)c1c(O)ccc(O)c1CO (stereo not drawn) ?
Reply: 55.4

Task item: Which CC50 value belongs to Nc1ccn([C@@H]2O[C@H](CO)[C@@H](O)C2(F)F)c(=O)n1 [GEMCITABINE] ?
Reply: 0.005

Task item: Which CC50 value belongs to CCCCC/C=C/C1=C(CO)C(=O)[C@H]2O[C@H]2[C@@H]1O ?
Reply: 6.5

Task item: Which CC50 value belongs to CCCCCCC(O)c1cccc(O)c1CO (stereo not drawn) ?
Reply: 26.2

----------
Tested on: Jurkat
Assay explanation: Cytotoxicity against human Jurkat cells assessed as cell viability after 24 hrs by WST-1 assay
Assay type: functional
Run parameters: read-out: LD50 (the source's name)
For each entry below, report its CC50 value.

Task item: Which CC50 value belongs to CCCCC/C=C/C1=C(CO)C(=O)C[C@H](O)[C@@H]1O ?
Reply: > 100 µM

Task item: Which CC50 value belongs to CCCCCCC(O)c1c(O)ccc(O)c1CO (stereo not drawn) ?
Reply: > 100 µM

Task item: Which CC50 value belongs to CCCCC/C=C/C1=C(CO)[C@H](O)[C@H]2O[C@H]2[C@@H]1O ?
Reply: > 100 µM
